protocol: Cytotoxicity against human HEL cells assessed as minimum concentration required to cause microscopically detectable alteration after 2 days
Format: cell-based
condition.info: read-out: Activity
The following compounds are shown together with reported MCC at 48 h values.

Check out these entries, answers already filled in.
Nc1ccn(C[C@@H](CO)OCP(=O)(O)O)c(=O)n1.O.O [CIDOFOVIR]	> 250 µg/mL
O=c1[nH]c(=O)n([C@H]2C[C@H](O)[C@@H](CO)O2)cc1/C=C/Br [BRIVUDINE]	> 250 µg/mL
O=c1c2ccccc2nc(-c2ccccc2)n1/N=C/c1ccccc1	> 100 µg/mL

MCC at 48 h reading for `O=c1c2ccccc2nc(-c2ccccc2)n1/N=C/c1ccc(O)cc1` : 100 µg/mL

MCC at 48 h reading for Nc1nc2c(ncn2COC(CO)CO)c(=O)[nH]1 [GANCICLOVIR] : > 100 µg/mL

MCC at 48 h reading for `O=c1c2ccccc2nc(-c2ccccc2)n1/N=C/c1ccccc1O` : 100 µg/mL

====

protocol: Selectivity index, ratio of minimum concentration required to cause microscopically detectable alteration in green monkey Vero cells to EC50 for Punta Toro virus
Type: toxicity, cell-based
condition.info: read-out: Selectivity Index
endpoint.label: selectivity ratio
Would you mind answering with just the numeric figure?

selectivity ratio reading for `O=c1c2ccccc2nc(-c2ccccc2)n1/N=C/c1ccccc1O` : 33

====

protocol: Cytotoxicity against african green monkey Vero cells assessed as minimum concentration required to cause microscopically detectable alteration after 2 days
Type: cell-based
condition.info: chlorocebus sabaeus, read-out: Activity
endpoint.label: MCC at 48 h (µg/mL)
API: value field is a number in µg/mL; no unit string.

O=c1c2ccccc2nc(-c2ccccc2)n1/N=C/c1ccccc1O	100
O=c1c2ccccc2nc(-c2ccccc2)n1/N=C/c1ccc(Cl)cc1	20
O=c1c2ccccc2nc(-c2ccccc2)n1/N=C/c1ccc(O)cc1	100
COc1ccc(/C=N/n2c(-c3ccccc3)nc3ccccc3c2=O)cc1	100
COc1ccc(/C=N/n2c(-c3ccccc3)nc3ccccc3c2=O)cc1O	100

MCC at 48 h reading for `COc1ccccc1/C=N/n1c(-c2ccccc2)nc2ccccc2c1=O` : 100

MCC at 48 h reading for `C/C(=N\n1c(-c2ccccc2)nc2ccccc2c1=O)c1ccc(O)cc1` : 100

MCC at 48 h reading for `C/C(=N\n1c(-c2ccccc2)nc2ccccc2c1=O)c1ccc(Cl)cc1` : 100

MCC at 48 h reading for `O=c1c2ccccc2nc(-c2ccccc2)n1/N=C/c1ccccc1` : 20

MCC at 48 h reading for `C/C(=N\n1c(-c2ccccc2)nc2ccccc2c1=O)c1ccccc1` : 100

MCC at 48 h reading for `O=c1c2ccccc2nc(-c2ccccc2)n1/N=C/c1cccc([N+](=O)[O-])c1` : 20

====

The following compounds are shown together with reported CC50 values.
protocol: Cytotoxicity against cat CRFK cells by MTS assay
Type: cell-based, Felis catus
condition.info: CRFK cells, read-out: CC50

Check out these entries, answers already filled in.
Nc1nc2c(ncn2COC(CO)CO)c(=O)[nH]1 [GANCICLOVIR]	> 100 µg/mL
CC(=O)N[C@H]1[C@H](OOP(=O)(O)OP(=O)(O)OC[C@H]2O[C@@H](n3ccc(=O)[nH]c3=O)[C@H](O)[C@@H]2O)O[C@H](CO)[C@@H](O)[C@@H]1O[C@](C)(OP(=O)(O)O)C(=O)O	> 100 µg/mL

CC50 reading for N=C(N)NCCC[C@H](N)C(=O)O [ARGININE] : > 100 µg/mL
